# STUDY TARGET: Alpha-1A adrenergic receptor (Homo sapiens)
# Sequence (P35348 whole entry): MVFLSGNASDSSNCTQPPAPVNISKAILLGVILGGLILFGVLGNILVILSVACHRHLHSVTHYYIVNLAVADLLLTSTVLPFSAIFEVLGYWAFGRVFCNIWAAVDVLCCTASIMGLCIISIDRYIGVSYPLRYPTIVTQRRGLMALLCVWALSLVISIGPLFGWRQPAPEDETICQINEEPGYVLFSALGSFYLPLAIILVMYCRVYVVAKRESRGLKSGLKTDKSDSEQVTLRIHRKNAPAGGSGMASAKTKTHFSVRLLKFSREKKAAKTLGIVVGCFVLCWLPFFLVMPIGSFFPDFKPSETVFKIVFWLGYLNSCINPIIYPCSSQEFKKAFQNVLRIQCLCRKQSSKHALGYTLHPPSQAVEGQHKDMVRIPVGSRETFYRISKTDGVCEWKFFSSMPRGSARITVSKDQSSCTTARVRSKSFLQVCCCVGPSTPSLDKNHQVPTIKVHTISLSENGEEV
# ASSAY OVERVIEW: Displacement of [125I]HEAT from human Alpha-1C adrenergic receptor expressed in CHO cells
# Type: cell-based
REPORTED PROPERTY: pKi
Please report pKi as the negative decimal logarithm of the molar concentration, giving only the number.

CS(=O)(=O)Nc1ccc2c(c1)OC1(CCN(CCc3ccccn3)CC1)CC2=O    5.78
Cn1cnc(S(=O)(=O)Nc2ccc3c(c2)C(=O)CC2(CCN(CCc4cccc5ccccc45)CC2)O3)c1    8.10

(Q) Using the record for "O=C1CC2(CCN(CCc3cccc4ccccc34)CC2)Oc2ccccc21" , report its pKi.
(A) 7.28

* * *

Overview of reported EC25 across a group of compounds:
# Species on record: Mustela putorius furo
# ASSAY OVERVIEW: In vitro concentration required to increase the effective refractory period (ERP) above baseline was evaluated using isolated ferret papillary muscle preparations
# Assay type: functional
# RUN CONDITIONS: Muscle tissue
All answers are understood in µM, so give the number only.

Look over these answered cases.
CS(=O)(=O)Nc1ccc2c(c1)OC1(CCN(CCc3ccccn3)CC1)CC2=O    6.6
O=C1CC2(CCN(CCc3ccccn3)CC2)Oc2ccccc21    0.16
CS(=O)(=O)Nc1ccc2c(c1)C(=O)CC1(CCN(CCc3ccccn3)CC1)O2    0.033
COc1ccccc1CCN1CCC2(CC1)CC(=O)c1ccc(NS(C)(=O)=O)cc1O2    3.8

(Q) Using the record for "CS(=O)(=O)Nc1ccc2c(c1)OC1(CCN(CCc3cccc4ccccc34)CC1)CC2=O" , report its EC25.
(A) 9

* * *

# STUDY TARGET: Alpha-1A adrenergic receptor (Homo sapiens)
# ASSAY OVERVIEW: Displacement of [125I]HEAT from human Alpha-1C adrenergic receptor expressed in CHO cells
# Type: cell-based
Overview of reported pKi across a group of molecules:
Please report pKi as the negative decimal logarithm of the molar concentration, giving only the number.

Look over these answered cases.
COc1ccccc1CCN1CCC2(CC1)CC(=O)c1ccc(NS(C)(=O)=O)cc1O2    8.19
C1=CC2(CCN(CCc3cccc4ccccc34)CC2)Oc2ccccc21    7.15
O=C1OC2(CCN(CCc3cccc4ccccc34)CC2)Cc2ccccc21    7.35
c1ccc2c(c1)CCC1(CCN(CCc3cccc4ccccc34)CC1)O2    7.25
O=C1CC2(CCN(CCc3cccc4ccccc34)CC2)Oc2ccc(NS(=O)(=O)Cc3ccccc3)cc21    7.89

(Q) Using the record for "CS(=O)(=O)Nc1ccc2c(c1)OC1(CCN(CCc3cccc4ccccc34)CC1)CC2=O" , report its pKi.
(A) 7.70

(Q) Using the record for "O=C1CC2(CCN(CCc3ccccn3)CC2)Oc2ccccc21" , report its pKi.
(A) 6.10

(Q) Using the record for "Cc1[nH]c2ccccc2c1CCN1CCC2(CC1)CC(=O)c1ccc(NS(C)(=O)=O)cc1O2" , report its pKi.
(A) 8.10

(Q) Using the record for "O=C1c2ccccc2CC12CCN(CCc1cccc3ccccc13)CC2" , report its pKi.
(A) 7.51
